# credit: PubChem BioAssay AID256

tested on: CD2F1 mice, L1210 leukemia ip, survival T/C; test: NCI In Vivo Anticancer Drug Screen. Data for tumor model L1210 Leukemia (intraperitoneal) in CD2F1 (CDF1) mice; details: endpoint: mean survival time; dose: 100.0 mg/kg/injection; schedule: Q01DX001 (ip); vehicle: saline; higher = longer survival
Inconclusive results and toxic doses are left out.
result.type: T/C

Example cases with answers are listed next.
[[record]]
molecule = "O=C(O)C(CO)C(CO)C(=O)O (centres undefined)"
value_observed = "121 % of control"

[[record]]
molecule = "C[n+]1cccc(C=O)c1"
value_observed = "103 % of control"

[[record]]
molecule = "CCOC1(C)OC2C(CO)OC(n3ccc4c(N)ncnc43)C2O1 (centres undefined)"
value_observed = "111 % of control"

[[record]]
molecule = "COc1ccc2c(c1)OC(OC)(c1ccc(OC)c(OC)c1)C(O)(OC)C2=O (centres undefined)"
value_observed = "98 % of control"

[[record]]
molecule = "Cc1ccc(NC(=O)c2ccc(C(=O)Nc3ccc(C)c(Cl)c3)cc2)cc1Cl"
value_observed = "89 % of control"


Batch: T/C for all items listed.
1. O=C1c2cccc(O)c2C(=O)c2c(O)cccc21
2. CCN(CC)c1ccc(NC(=O)c2ccc(C(=O)Nc3ccc(N(CC)CC)cc3)cc2)cc1
3. Nc1ccn(C2CC(O)C(CO)C2)c(=O)n1 (centres undefined)

1. 100 % of control
2. 89 % of control
3. 100 % of control

###

Provide the reported T/C of each item.
tested on: CD2F1 mice, L1210 leukemia ip, survival T/C; test: NCI In Vivo Anticancer Drug Screen. Data for tumor model L1210 Leukemia (intraperitoneal) in CD2F1 (CDF1) mice; details: endpoint: mean survival time; dose: 50.0 mg/kg/injection; schedule: Q04DX002 (ip); vehicle: saline; higher = longer survival
Inconclusive results and toxic doses are left out.

Worked examples follow.
[[record]]
compound = "C=C1C(=O)OC2CC3(C)CCCC(C)C34OC4C12 (centres undefined)"
result_type = "T/C"
value_observed = "90 % of control"

[[record]]
compound = "CN=C(N)CS"
result_type = "T/C"
value_observed = "101 % of control"

[[record]]
compound = "CCCCCCCCCCCCCCCCNCC(O)CN (centres undefined)"
result_type = "T/C"
value_observed = "103 % of control"


Consider now this further compound.
Bench note: what T/C did [Co].[N-]=C=S.[N-]=C=S.[N-]=C=S.[N-]=C=S show?
104 % of control

###

tested on: CD2F1 mice, L1210 leukemia ip, survival T/C; test: NCI In Vivo Anticancer Drug Screen. Data for tumor model L1210 Leukemia (intraperitoneal) in CD2F1 (CDF1) mice; conditions: endpoint: mean survival time; dose: 6.25 mg/kg/injection; schedule: Q01DX009 (ip); vehicle: saline with Tween-80; higher = longer survival
Inconclusive results and toxic doses are left out.
Field: T/C. Provide a value for each of the compounds that follow.

[[record]]
record_smiles = "OCCC(c1ccccc1)(c1ccccc1)c1ccccc1"
value_observed = "113 % of control"

[[record]]
record_smiles = "C=C[CH2][Sn]([Br])([c]1ccccc1)[c]1ccccc1"
value_observed = "94 % of control"

[[record]]
record_smiles = "CCCCC/C=C/C/C=C\\CCCCCCCC1=C(O)C(=O)C(OC)=C(OC)C1=O"
value_observed = "120 % of control"

[[record]]
record_smiles = "CN(C)c1ccc(N=Nc2ccc([As](=O)(O)O)cc2)cc1"
value_observed = "91 % of control"

[[record]]
record_smiles = "COc1ccc(S(=O)(=O)N/N=C/C(=O)O)cc1"
value_observed = "115 % of control"

[[record]]
record_smiles = "CC1(C)N=C(N)N=C(N)N1c1cccc(CCCCOc2ccccc2)c1"
value_observed = "101 % of control"


Would you kindly look at the next entry?
So what T/C did C(=NCCN1CCOCC1)=NC1CCCCC1 get with CD2F1 mice, L1210 leukemia ip, survival T/C?
91 % of control

###

tested on: CD2F1 mice, L1210 leukemia ip, survival T/C; test: NCI In Vivo Anticancer Drug Screen. Data for tumor model L1210 Leukemia (intraperitoneal) in CD2F1 (CDF1) mice; details: endpoint: mean survival time; dose: 400.0 mg/kg/injection; schedule: Q04DX002 (ip); vehicle: saline; higher = longer survival
Inconclusive results and toxic doses are left out. Non-standard residues stand in square brackets, D forms with d. Residues, ends and D or L forms follow the SMILES beside them. ξ: configuration not given here. ξIva = CCC(C)(N)C(=O)O
result.type: T/C

[[record]]
compound = "CCCC(=O)Nc1ccn(C2OC(CO)C(O)C2O)c(=O)n1 (stereo not drawn)"
value_observed = "97 % of control"

[[record]]
compound = "CC1COC(C(=O)O)(c2ccccc2)O1 (stereo not drawn)"
value_observed = "100 % of control"

[[record]]
compound = "NNC(=O)CC(O)(C1CC1)C1CC1"
value_observed = "100 % of control"

[[record]]
compound = "NC(C(=O)O)C(CC(=O)O)C(=O)O (stereo not drawn)"
value_observed = "106 % of control"

[[record]]
compound = "CCC(C)(NC(=O)CN)C(=O)O (stereo not drawn) (H-Gly-[ξIva]-OH)"
value_observed = "90 % of control"

[[record]]
compound = "CCOC(=O)C(C)S(=O)(=O)O (stereo not drawn)"
value_observed = "100 % of control"

[[record]]
compound = "CN1C2CCC1CC(O)C2 (stereo not drawn)"
value_observed = "97 % of control"


Continue with the compound presented below.
// returns reported T/C for input O=C(OCc1ccccc1)C1CC1 (tested in a mixture with another compound)
97 % of control

###

system: CD2F1 mice, L1210 leukemia ip, survival T/C; assay: NCI In Vivo Anticancer Drug Screen. Data for tumor model L1210 Leukemia (intraperitoneal) in CD2F1 (CDF1) mice; settings: endpoint: mean survival time; dose: 6.25 mg/kg/injection; schedule: Q01DX009 (ip); vehicle: saline; higher = longer survival
Inconclusive results and toxic doses are left out.
result.type: T/C

[[record]]
compound = "O[Si](O)([O][Sn]([c]1ccccc1)([c]1ccccc1)[c]1ccccc1)[O][Sn]([c]1ccccc1)([c]1ccccc1)[c]1ccccc1"
result_type = "T/C"
value_observed = "106 % of control"

[[record]]
compound = "N=C(N)SCc1ccccc1Cl"
result_type = "T/C"
value_observed = "101 % of control"

[[record]]
compound = "CC(Oc1ccc(Cl)cc1)C(/C=N/N=C(N)N)=N/N=C(N)N (centres undefined)"
result_type = "T/C"
value_observed = "102 % of control"


Now take the following compound into account.
Entry FC(F)(F)c1cccc(C(OCCN2CCCC2)c2ccccc2)c1 (centres undefined) has what T/C?
105 % of control

###

test system: CD2F1 mice, L1210 leukemia ip, survival T/C; assay: NCI In Vivo Anticancer Drug Screen. Data for tumor model L1210 Leukemia (intraperitoneal) in CD2F1 (CDF1) mice; details: endpoint: mean survival time; dose: 5.0 mg/kg/injection; schedule: Q01DX001 (ip); vehicle: saline; higher = longer survival
Toxic doses and inconclusive results are not listed.
result.type: T/C

Known results for compounds:
[[record]]
compound = "CC(=O)n1cc(CS)c(=O)[nH]c1=O"
value_observed = "105 % of control"

[[record]]
compound = "c1ccc([As]2[As](c3ccccc3)[As](c3ccccc3)[As]2c2ccccc2)cc1 (centres undefined)"
value_observed = "101 % of control"


Give T/C for each of the items listed below.
1. C[N+](C)(C)C
2. CCCCCNCCOC(=O)c1ccc(N)cc1

98 % of control
100 % of control

###

System: CD2F1 mice, L1210 leukemia ip, survival T/C
Assay: NCI In Vivo Anticancer Drug Screen. Data for tumor model L1210 Leukemia (intraperitoneal) in CD2F1 (CDF1) mice
Conditions: endpoint: mean survival time; dose: 50.0 mg/kg/injection; schedule: Q04DX002 (ip); vehicle: saline with Tween-80; higher = longer survival
Experimental: The antitumor activity of compounds was measured in mice bearing transplantable tumors. Survival or tumor size were measured and the results are expressed as the measurement made in the treated group (T) divided by the measurement made in the vehicle treated control group (C). The tumor model used in this assay is L1210 Leukemia (intraperitoneal) in CD2F1 (CDF1) mice
Inconclusive results and toxic doses are left out.
Kindly state T/C for each of the entries shown.

Completed entries (count: 6):
[[record]]
compound = "CCn1c(=N)sc2ccc(C(=O)OC)cc21"
system_name = "CD2F1 mice, L1210 leukemia ip, survival T/C"
value_observed = "90 % of control"

[[record]]
compound = "CCCCCCCCN(C=O)CCCCCCCC"
system_name = "CD2F1 mice, L1210 leukemia ip, survival T/C"
value_observed = "96 % of control"

[[record]]
compound = "COc1ccccc1N=Nc1c(O)n(-c2ccccc2OC)c(=S)n(-c2ccc(Br)cc2)c1=O"
system_name = "CD2F1 mice, L1210 leukemia ip, survival T/C"
value_observed = "100 % of control"

[[record]]
compound = "CCOP(=S)(N=C=S)OCC"
system_name = "CD2F1 mice, L1210 leukemia ip, survival T/C"
value_observed = "90 % of control"

[[record]]
compound = "NC(=O)C1CC=CCC1 (stereo unspecified)"
system_name = "CD2F1 mice, L1210 leukemia ip, survival T/C"
value_observed = "98 % of control"

[[record]]
compound = "NC(=O)OCCc1c2ccccc2[n+]([O-])c2ccccc12"
system_name = "CD2F1 mice, L1210 leukemia ip, survival T/C"
value_observed = "98 % of control"


Please give T/C, item by item, for the list that follows.
1. O=[N+]([O-])c1ccc(NN=C2c3ccccc3Cc3ccccc32)c([N+](=O)[O-])c1
2. CC(O)CN=C(N)C(N)=NCC(C)O (stereo unspecified)

91 % of control
97 % of control

Would you mind giving T/C for every compound in the list below?
1. OCC1C2C=CC(c3ccccc32)C1CO (stereo unspecified)
2. COc1ccc2cc1Oc1ccc(cc1)C[C@@H]1c3cc(c(OC)cc3CCN1C)Oc1c(OC)c(OC)cc3c1[C@H](C2)N(C)CC3
3. O=C(O)C1(Br)CCC1
4. CCCCCCCCCCCCCC[N+](C)(C)CC#CC[N+](C)(C)CCCCCCCCCCCCCC

1: 106 % of control; 2: 94 % of control; 3: 97 % of control; 4: 89 % of control

The following compounds each have a reported value; give each one's T/C.
1. O=C1CCC(C(=O)Nc2ccc(Cl)cc2Cl)N1 (stereo unspecified)
2. O=c1c2cccc3cccc(c32)c2cc(-c3ccccc3)nn12
3. CCCCC(=O)/C=C/c1ccccc1
4. CCC12C=CC(OC)(CC1)C(C#N)C2 (stereo unspecified)

1. 98 % of control
2. 92 % of control
3. 97 % of control
4. 103 % of control
